# experiment: Hypotensive effect in anesthetized rats (carotid artery blood pressure)
# Type: in vivo
# condition: dose 10 μg/kg, i.v., rat; Examples as liposome formulation, comparative compound as lipid emulsion

| molecule | Hypotensive effect, Maximum hypotension (mmHg) |
| --- | --- |
| CCCCCCCCCC(=O)OC(C)OC(=O)CCCCCC[C@H]1C(=O)C[C@@H](O)[C@@H]1/C=C/[C@@H](O)CCCCC (stereo partly shown) [Comparative compound, PGE1 1-decanoyloxyethyl ester, reference compound] | 18 |
| CCCCCCCCCCCC(=O)OCCOC(=O)CCCCCC[C@H]1C(=O)C[C@@H](O)[C@@H]1/C=C/[C@@H](O)CCCCC [Example 1, PGE1 (dodecanoyloxy)ethyl ester] | 13 |
| CCCCCCCCCCCCOCC(=O)OCCOC(=O)CCCCCC[C@H]1C(=O)C[C@@H](O)[C@@H]1/C=C/[C@@H](O)CCCCC [Example 3, PGE1 2-(dodecyloxyacetoxy)ethyl ester] | 9 |
| CCCCCCCCCCCCCCCCOCC(=O)OCCOC(=O)CCCCCC[C@H]1C(=O)C[C@@H](O)[C@@H]1/C=C/[C@@H](O)CCCCC [Example 2, PGE1 2-(hexadecyloxyacetoxy)ethyl ester] | 7 |
